Target: MSI1 full-length (mouse, UniProt Q61474 1-362)
Sequence (Q61474 whole entry): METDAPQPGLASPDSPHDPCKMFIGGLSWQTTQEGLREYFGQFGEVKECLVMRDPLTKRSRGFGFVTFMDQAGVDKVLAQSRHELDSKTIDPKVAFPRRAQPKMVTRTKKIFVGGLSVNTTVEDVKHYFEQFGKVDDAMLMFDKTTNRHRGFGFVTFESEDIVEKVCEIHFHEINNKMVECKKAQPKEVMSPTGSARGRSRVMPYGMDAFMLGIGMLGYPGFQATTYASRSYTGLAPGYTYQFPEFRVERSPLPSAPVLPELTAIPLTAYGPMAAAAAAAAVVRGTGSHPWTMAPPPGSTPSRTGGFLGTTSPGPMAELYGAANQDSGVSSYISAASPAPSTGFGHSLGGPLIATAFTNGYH
Assay: nsRBNS (natural sequence RNA bind-n-seq); RBNS binding buffer (assumed for nsRBNS): 25 mM Tris pH 7.5, 150 mM KCl, 3 mM MgCl2, 0.01% Triton X-100, 500 ug/ml BSA, 20 U/ml SUPERase-In, 4 C; UNK is unkempt and MSI1 is Musashi-1; names of the RNAs are library labels; protein concentration not given here; high values mean tight binding
Whole data set: some 5,800 sequences, median “enrichment r” near 0.54, cut for the highest 2% near 16. The sample holds the highest values, similar sequences and a random draw of the others, so the mix is not that of the screen.
METRIC: binding signal (enrichment R)

1. chr2:166409664:166409935:-|three_prime_utr|ENSG00000136546|control|control|control (ssRNA) RNA: GGGAGUUCUACAGUCCGACGAUCUGUGGUAACAAGCCAAGCUUUUAAUGUCAUUGUUAUGGUUCUUAUAUGUUUCCAAGCAAUAGCCAUGAUGAUAGACACUGAUGUUCAGAGUCUACAAAUGUCCAUUGCUCUCUACUGGAUCAACAGAGGAUUGAGCAUCA    0.263
2. chrX:115010634:115010735:-|CDS|ENSG00000123496|msi1|FALSE|unique (ssRNA) RNA: GGGAGUUCUACAGUCCGACGAUCUGGAUCAUCAGAGAACAAGCCUAUCAGAUCCAGUUAUUUCACUUUUCAGCUUCAAAAUAUAGGUGAUGUAAACCAACAAACAACUUCAAAUUCAUUGUUUCUAGUUUAGGCCAUUUACAACAACAGAGGAUUGAGCAUCA    1.74
3. chr17:48622902:48623135:-|CDS|ENSG00000170689|control|control|control (ssRNA) RNA: GGGAGUUCUACAGUCCGACGAUCUACCAGACGCUGGAGCUAGAGAAGGAGUUUCUGUUCAAUAUGUACCUCACCAGGGACCGUAGGCACGAAGUGGCCAGACUCCUCAAUCUGAGUGAGAGACAAGUCAAAAUCUGGUUUCAGCAACAGAGGAUUGAGCAUCA    0.411
4. chr12:101746137:101746238:-|3pUTR|ENSG00000111670|msi1|total|mutant (ssRNA) RNA: GGGAGUUCUACAGUCCGACGAUCGGUCCGUAAAUUAUUGCAGGCCACCUGUGUCUUUGUCAUACAUUCUUCUUGCUGUUGUUCCGUUUGUUUUUUUUCAAACAACCCUCUAAAAAUGUAAAAACCAUGUUCCGCUUGCAGCUGCAACAGAGGAUUGAGCAUCA    0.343
5. chr1:193029531:193029688:-|CDS|ENSG00000116750|unk|total|mutant (ssRNA) RNA: GGGAGUUCUACAGUCCGACGAUCUUGAUAUCUUCACUUUUAUAUUUUACCGGUAAUUAAUAAUGCUUGUGCUACUCAAGCCACCGUGAGUGUGUUACUGAACUGUACCCACCAGGAUGUCCAUUCCGGCGAGACAUUAUCAGACAACAGAGGAUUGAGCAUCA    1.15
6. chr9:86945015:86945116:-|3pUTR|ENSG00000180447|msi1|FALSE|unique (ssRNA) RNA: GGGAGUUCUACAGUCCGACGAUCUUGGUUUUGGAUAAGUUUGAGCCCUUGACCUUAAUUUCAUUGCUACCACUCUGAUCUCUUAGCACAUUUCUUAGGAUUAAGGGUCCAAAAAUGCUGAUCUAAGGGGUUGCCAUGGUGUUGCAACAGAGGAUUGAGCAUCA    0.273
7. chr1:193029531:193029688:-|CDS|ENSG00000116750|unk|FALSE|unique (ssRNA) RNA: GGGAGUUCUACAGUCCGACGAUCUUGAUAUCUUCACUUUUAUAUUUUAUAGGUAAUUAAUAAUGCUUGUGCUACUCAAGCCAUAGUGAGUGUGUUACUGAACUGUACCCACCAGGAUGUCCAUUUAGGCGAGACAUUAUCAGACAACAGAGGAUUGAGCAUCA    30
